Assay: Aqueous stability at biorelevant pH values, 37 °C (UHPLC-DAD)
Assay type: physicochemical
Conditions: 9 h, pH 1.2, 37 °C
Marks after values point to notes of the source that are not given here.
MEASURED ATTRIBUTE: relative concentration compared to the initial value

Prompt line: For `O=C1CCc2ccc(O)c(c2)-c2cc(ccc2O)C[C@@H](O)[C@H](O)C1` , write its relative concentration compared to the initial value.
Response line: 100.6 ± 6.9 ^a %

Prompt line: Give the value of relative concentration compared to the initial value reported for the following: `O=C1CCc2ccc(O)c(c2)-c2cc(ccc2O)C[C@H](O)[C@H](O)[C@H]1O`
Response line: 101.7 ± 4.2 ^a %

Prompt line: Provide measured relative concentration compared to the initial value value, entry: `O=C1C[C@H](O)[C@@H](O)Cc2ccc(O)c(c2)-c2cc(ccc2O)C[C@H]1O`
Response line: 97.1 ± 8.9 ^a %

Prompt line: Answer with the recorded relative concentration compared to the initial value of O=C1CCC(=O)C(O)Cc2ccc(O)c(c2)-c2cc(ccc2O)C1 (stereo not shown) only.
Response line: 68.5 ± 4.5%

====

Experiment: Storage stability in solutions and hornbeam bark extracts (UHPLC-DAD)
Format: physicochemical
Conditions: 23 weeks, −15 °C, EE (ethyl acetate extract of bark)
Marks after values point to notes of the source that are not given here.
Would you kindly list concentration as compared to the initial value for each of these compounds?

Prompt line: Supply reported concentration as compared to the initial value belonging to this compound: O=C1CCC(=O)C(O)Cc2ccc(O)c(c2)-c2cc(ccc2O)C1 (stereo not shown)
Response line: 108.0 ± 2.2 %

Prompt line: Look up concentration as compared to the initial value of `O=C1C[C@H](O)[C@@H](O)Cc2ccc(O)c(c2)-c2cc(ccc2O)C[C@H]1O` and report it.
Response line: 91.3 ± 4.2 ^#def %

Prompt line: Return reported concentration as compared to the initial value. Input compound: `O=C1CCc2ccc(O)c(c2)-c2cc(ccc2O)C[C@H](O)[C@H](O)[C@H]1O`
Response line: 99.8 ± 0.4 ^a %

Prompt line: Recall and state the measured concentration as compared to the initial value for `O=C1CCc2ccc(O)c(c2)-c2cc(ccc2O)C[C@@H](O)[C@H](O)C1` .
Response line: 101.1 ± 2.7 ^#bcd %

====

System: HepG2 (hepatocellular carcinoma)
Assay: In vitro antiproliferative activity, Alamar Blue assay
Type: cell-based
Conditions: Homo sapiens, HepG2, read-out: IC50 ± SD
MEASURED ATTRIBUTE: IC50 (nM)
Response body: numeric value in nM, unit text excluded.

Prompt line: Give the measured IC50 for COc1cccc2c1C(=O)c1c(O)c3c(c(O)c1C2=O)C[C@@](O)(C(C)=O)C[C@@H]3O[C@H]1C[C@H](N)[C@H](O)[C@H](C)O1 [Dau, daunomycin, reference compound]
Response line: 1200

====

Assay: Aqueous stability at biorelevant pH values, 37 °C (UHPLC-DAD)
Format: physicochemical
Details: 9 h, pH 7.4, 37 °C
Marks after values point to notes of the source that are not given here.
Would you kindly list relative concentration compared to the initial value for each of these molecules?

Prompt line: Return the recorded relative concentration compared to the initial value value; entry: `O=C1CCc2ccc(O)c(c2)-c2cc(ccc2O)C[C@@H](O)[C@H](O)C1`
Response line: 82.6 ± 7.7 ^#b %

Prompt line: // fetch relative concentration compared to the initial value given entry `O=C1CCc2ccc(O)c(c2)-c2cc(ccc2O)C[C@H](O)[C@H](O)[C@H]1O`
Response line: 102.0 ± 0.9 ^a %

Prompt line: Give the reported value of relative concentration compared to the initial value for this record: `O=C1C[C@H](O)[C@@H](O)Cc2ccc(O)c(c2)-c2cc(ccc2O)C[C@H]1O`
Response line: 96.9 ± 1.2 ^a %

Prompt line: Provide measured relative concentration compared to the initial value value, entry: O=C1CCC(=O)C(O)Cc2ccc(O)c(c2)-c2cc(ccc2O)C1 (stereo not shown)
Response line: 102.0 ± 3.7 ^a %

====

Test: Storage stability in solutions and hornbeam bark extracts (UHPLC-DAD)
Type: physicochemical
Details: 12 weeks, −15 °C, SA (aqueous solution)
Marks after values point to notes of the source that are not given here.
MEASURED ATTRIBUTE: concentration as compared to the initial value

Prompt line: Using the record for `O=C1C[C@H](O)[C@@H](O)Cc2ccc(O)c(c2)-c2cc(ccc2O)C[C@H]1O` , state its measured concentration as compared to the initial value.
Response line: 93.5 ± 0.4 ^#ef %

Prompt line: Report concentration as compared to the initial value, nothing else, for this compound: `O=C1CCc2ccc(O)c(c2)-c2cc(ccc2O)C[C@H](O)[C@H](O)[C@H]1O`
Response line: 99.1 ± 1.3 ^a %

Prompt line: Give recorded concentration as compared to the initial value. O=C1CCC(=O)C(O)Cc2ccc(O)c(c2)-c2cc(ccc2O)C1 (stereo not shown)
Response line: 98.6 ± 1.3 ^b %

Prompt line: Return reported concentration as compared to the initial value. Input compound: `O=C1CCc2ccc(O)c(c2)-c2cc(ccc2O)C[C@@H](O)[C@H](O)C1`
Response line: 100.1 ± 0.6 ^bcd %

====

Experiment: Storage stability in solutions and hornbeam bark extracts (UHPLC-DAD)
Assay type: physicochemical
Conditions: 12 weeks, −15 °C, EE (ethyl acetate extract of bark)
Marks after values point to notes of the source that are not given here.
MEASURED ATTRIBUTE: concentration as compared to the initial value

Prompt line: For O=C1CCc2ccc(O)c(c2)-c2cc(ccc2O)C[C@H](O)[C@H](O)[C@H]1O [Compound 2, carpinontriol B] , write its concentration as compared to the initial value.
Response line: 100.1 ± 0.7 ^a %

Prompt line: Read the entry O=C1CCC(=O)C(O)Cc2ccc(O)c(c2)-c2cc(ccc2O)C1 (stereo not shown) [Compound 4] and write its reported concentration as compared to the initial value.
Response line: 103.5 ± 0.8%

Prompt line: Supply recorded concentration as compared to the initial value for O=C1C[C@H](O)[C@@H](O)Cc2ccc(O)c(c2)-c2cc(ccc2O)C[C@H]1O [Compound 1, carpinontriol A] here.
Response line: 100.5 ± 0.5 ^ceg %

Prompt line: Name the recorded concentration as compared to the initial value of the item O=C1CCc2ccc(O)c(c2)-c2cc(ccc2O)C[C@@H](O)[C@H](O)C1 [Compound 3, giffonin X] in your answer.
Response line: 103.5 ± 0.2 ^b %

====

Assay: Storage stability in solutions and hornbeam bark extracts (UHPLC-DAD)
Type: physicochemical
Details: 12 weeks, 22 °C, SM (methanol solution)
Marks after values point to notes of the source that are not given here.
MEASURED ATTRIBUTE: concentration as compared to the initial value

Prompt line: Recall and state the measured concentration as compared to the initial value for O=C1CCc2ccc(O)c(c2)-c2cc(ccc2O)C[C@@H](O)[C@H](O)C1 [Compound 3, giffonin X] .
Response line: 84.5 ± 7.4 ^#a %

Prompt line: Provide one value: measured concentration as compared to the initial value of O=C1CCC(=O)C(O)Cc2ccc(O)c(c2)-c2cc(ccc2O)C1 (stereo not shown) [Compound 4]
Response line: 100.1 ± 0.5 ^ab %

Prompt line: Tell me concentration as compared to the initial value reported for O=C1C[C@H](O)[C@@H](O)Cc2ccc(O)c(c2)-c2cc(ccc2O)C[C@H]1O [Compound 1, carpinontriol A]
Response line: 63.5 ± 8.7 ^#a %

Prompt line: Give reported concentration as compared to the initial value value for O=C1CCc2ccc(O)c(c2)-c2cc(ccc2O)C[C@H](O)[C@H](O)[C@H]1O [Compound 2, carpinontriol B]
Response line: 99.7 ± 0.4 ^a %

====

Assay: Storage stability in solutions and hornbeam bark extracts (UHPLC-DAD)
Type: physicochemical
Settings: 23 weeks, 5 °C, EE (ethyl acetate extract of bark)
Marks after values point to notes of the source that are not given here.
MEASURED ATTRIBUTE: concentration as compared to the initial value

Prompt line: Identify concentration as compared to the initial value associated with the molecule O=C1CCc2ccc(O)c(c2)-c2cc(ccc2O)C[C@@H](O)[C@H](O)C1 [Compound 3, giffonin X]
Response line: 100.9 ± 1.3 ^bcd %

Prompt line: Return concentration as compared to the initial value for the following molecule: O=C1C[C@H](O)[C@@H](O)Cc2ccc(O)c(c2)-c2cc(ccc2O)C[C@H]1O [Compound 1, carpinontriol A]
Response line: 92.1 ± 1.3 ^#def %

Prompt line: Item O=C1CCC(=O)C(O)Cc2ccc(O)c(c2)-c2cc(ccc2O)C1 (stereo not shown) [Compound 4] : provide concentration as compared to the initial value
Response line: 107.8 ± 2.6 %

Prompt line: Return value of concentration as compared to the initial value for input O=C1CCc2ccc(O)c(c2)-c2cc(ccc2O)C[C@H](O)[C@H](O)[C@H]1O [Compound 2, carpinontriol B] , no commentary.
Response line: 100.1 ± 0.4 ^a %

====

Assay: Storage stability in solutions and hornbeam bark extracts (UHPLC-DAD)
Format: physicochemical
Conditions: 12 weeks, 5 °C, EM (methanol extract of bark)
Marks after values point to notes of the source that are not given here.
MEASURED ATTRIBUTE: concentration as compared to the initial value

Prompt line: Supply recorded concentration as compared to the initial value for O=C1CCc2ccc(O)c(c2)-c2cc(ccc2O)C[C@@H](O)[C@H](O)C1 [Compound 3, giffonin X] here.
Response line: 100.2 ± 1.1 ^bcd %

Prompt line: Provide measured concentration as compared to the initial value value, entry: O=C1C[C@H](O)[C@@H](O)Cc2ccc(O)c(c2)-c2cc(ccc2O)C[C@H]1O [Compound 1, carpinontriol A]
Response line: 110.1 ± 6.2 ^bc %

Prompt line: Query concentration as compared to the initial value for O=C1CCC(=O)C(O)Cc2ccc(O)c(c2)-c2cc(ccc2O)C1 (stereo not shown) [Compound 4]
Response line: 105.5 ± 2.5%

Prompt line: Respond only with concentration as compared to the initial value recorded for O=C1CCc2ccc(O)c(c2)-c2cc(ccc2O)C[C@H](O)[C@H](O)[C@H]1O [Compound 2, carpinontriol B]
Response line: 99.9 ± 0.8 ^a %

Data provenance: paper PMC10488193
